Test details: in vivo
Assay conditions: male, CD1, mouse
Result type: bioavailability (%)
Numbers only, in %.

Which bioavailability value belongs to Cc1cc([C@@H](C)Nc2ccccc2C(=O)O)c2oc(-c3ccc(CN4CCN(C)CC4)cc3)c(C)c(=O)c2c1 ? 46.5

---

System: PI3Kβ (Homo sapiens)
Construct: endogenous in cells
Sequence (P42338 whole entry): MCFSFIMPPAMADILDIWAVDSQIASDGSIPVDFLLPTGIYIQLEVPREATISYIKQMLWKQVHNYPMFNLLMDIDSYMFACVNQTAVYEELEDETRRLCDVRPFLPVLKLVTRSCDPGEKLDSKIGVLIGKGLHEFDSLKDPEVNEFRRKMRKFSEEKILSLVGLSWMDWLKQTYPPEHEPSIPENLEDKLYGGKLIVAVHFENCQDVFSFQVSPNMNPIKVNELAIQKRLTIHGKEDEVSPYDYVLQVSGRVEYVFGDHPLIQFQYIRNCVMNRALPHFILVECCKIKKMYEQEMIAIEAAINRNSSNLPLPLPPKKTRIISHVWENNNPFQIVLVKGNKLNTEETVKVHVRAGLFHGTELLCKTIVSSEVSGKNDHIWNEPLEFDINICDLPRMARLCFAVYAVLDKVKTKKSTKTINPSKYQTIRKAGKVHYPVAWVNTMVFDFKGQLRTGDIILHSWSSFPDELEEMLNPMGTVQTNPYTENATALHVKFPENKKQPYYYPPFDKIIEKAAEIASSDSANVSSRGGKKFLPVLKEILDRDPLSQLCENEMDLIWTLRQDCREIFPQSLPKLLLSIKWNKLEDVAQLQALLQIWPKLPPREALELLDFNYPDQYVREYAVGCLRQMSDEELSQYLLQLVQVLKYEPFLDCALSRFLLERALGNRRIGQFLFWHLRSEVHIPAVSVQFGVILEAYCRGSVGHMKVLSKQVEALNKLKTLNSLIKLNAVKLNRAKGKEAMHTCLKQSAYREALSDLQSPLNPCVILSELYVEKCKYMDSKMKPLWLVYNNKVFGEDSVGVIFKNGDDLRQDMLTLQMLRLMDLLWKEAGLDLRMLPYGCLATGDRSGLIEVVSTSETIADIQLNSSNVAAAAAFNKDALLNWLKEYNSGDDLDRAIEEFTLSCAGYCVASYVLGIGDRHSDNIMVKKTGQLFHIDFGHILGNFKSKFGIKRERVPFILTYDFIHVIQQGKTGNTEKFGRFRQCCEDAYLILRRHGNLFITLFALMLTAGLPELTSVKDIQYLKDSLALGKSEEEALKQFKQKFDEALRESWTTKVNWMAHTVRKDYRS
Sequence (P27986 whole entry partner): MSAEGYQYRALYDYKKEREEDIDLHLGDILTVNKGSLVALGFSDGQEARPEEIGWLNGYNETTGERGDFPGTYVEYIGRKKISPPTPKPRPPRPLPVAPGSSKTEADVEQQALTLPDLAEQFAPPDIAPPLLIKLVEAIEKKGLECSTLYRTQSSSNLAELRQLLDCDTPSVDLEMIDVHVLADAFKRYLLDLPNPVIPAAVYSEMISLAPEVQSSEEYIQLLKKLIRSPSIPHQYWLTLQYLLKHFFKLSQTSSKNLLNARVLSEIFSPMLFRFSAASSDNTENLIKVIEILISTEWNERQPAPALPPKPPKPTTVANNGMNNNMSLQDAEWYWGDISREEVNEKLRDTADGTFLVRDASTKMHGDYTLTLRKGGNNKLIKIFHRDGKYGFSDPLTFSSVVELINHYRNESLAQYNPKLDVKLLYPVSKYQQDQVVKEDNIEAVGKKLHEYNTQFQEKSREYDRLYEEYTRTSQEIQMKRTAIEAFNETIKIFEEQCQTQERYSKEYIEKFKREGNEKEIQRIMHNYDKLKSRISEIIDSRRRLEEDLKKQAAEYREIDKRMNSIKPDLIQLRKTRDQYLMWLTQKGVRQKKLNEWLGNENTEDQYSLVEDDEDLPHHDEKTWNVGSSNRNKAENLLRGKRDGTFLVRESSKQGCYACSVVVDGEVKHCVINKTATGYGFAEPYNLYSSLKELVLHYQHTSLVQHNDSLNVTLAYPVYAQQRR
Test details: Selectivity study, p-AKT (Ser473) HTRF assay in 786-O cells
Assay conditions: 786-O cell, 1 hour incubation, serum-free medium
Field: IC50. Provide a value for each of the compounds that follow.
Give bare numbers, in µM.

Cc1cc(C(C)Nc2ccccc2C(=O)O)c2oc(-c3ccc(-c4cnn(C)c4)cc3)cc(=O)c2c1 (stereo not drawn)    1.22
CC(Nc1ccccc1C(=O)O)c1cc(Cl)cc2c(=O)cc(-c3ccc4nn(C)cc4c3)oc12 (stereo not drawn)    1.15
Cc1cc([C@@H](C)Nc2ccccc2C(=O)O)c2oc(-c3ccc4nn(C)cc4c3)cc(=O)c2c1 (single isomer, unassigned) [Example 38B]    0.545

Now look at this entry.
Which IC50 value belongs to CC(=O)N1CCN(c2ccc(-c3oc4c([C@@H](C)Nc5ccccc5C(=O)O)cc(C)cc4c(=O)c3C)cc2)CC1 (single isomer, unassigned) [Example 123A] ? 6.46
